# Test system: UniProt:C9JRZ8
Value kind: IC50

Some compounds with known IC50 results, for comparison:
COc1ccc2c(C(=S)N(C)CC(=O)O)cccc2c1C(F)(F)F; > 100 µM
C[C@H](CCC(=O)O)[C@H]1CC[C@H]2[C@@H]3CC[C@@H]4C[C@H](O)CC[C@]4(C)[C@H]3CC[C@]12C; 16.3 µM
CC1(C)CC[C@]2(C(=O)O)CC[C@]3(C)C(=CC[C@@H]4[C@@]5(C)CC[C@H](O)C(C)(C)[C@@H]5CC[C@]43C)[C@@H]2C1; > 100 µM
Oc1c(F)c(F)c(-c2c(F)c(F)c(O)c(F)c2F)c(F)c1F; 0.034 µM
O=C1NC(=O)[C@@]2(CCOc3ccc(F)cc32)N1; > 100 µM
CC(/C=C1\SC(=S)N(CC(=O)O)C1=O)=C\c1ccccc1; > 50 µM

# next compound below
IN: Give recorded IC50 with UniProt:C9JRZ8 for the following compound: CC1=C(CC(=O)O)c2cc(F)ccc2/C1=C\c1ccc([S+](C)[O-])cc1 (stereo not shown)
OUT: > 100 µM

###

# Test system: AKR1B10 (Homo sapiens, UniProt O60218)
# Construct: made in house
# Sequence (O60218 whole entry): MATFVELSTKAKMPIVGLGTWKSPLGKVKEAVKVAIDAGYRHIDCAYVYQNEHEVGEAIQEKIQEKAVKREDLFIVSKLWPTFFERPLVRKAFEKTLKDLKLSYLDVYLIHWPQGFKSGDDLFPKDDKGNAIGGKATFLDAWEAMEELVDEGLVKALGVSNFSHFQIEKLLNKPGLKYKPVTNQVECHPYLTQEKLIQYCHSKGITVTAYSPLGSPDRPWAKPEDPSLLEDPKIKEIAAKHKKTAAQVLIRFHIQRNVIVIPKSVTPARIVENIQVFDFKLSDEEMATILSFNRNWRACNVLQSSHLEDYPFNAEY
# Protocol: Spectrophotometric activity assay (NADPH decrease at 340 nm), substrate kinetics
# Format: biochemical
# Experimental setup: substrate, spectrophotometric, read-out: Km
Provide the reported Km of each item.
Answers are plain numbers, in µM.

CC(=O)CC(C)=O [2,4-pentanedione]; 58900

Quick request: Km for each listed item, please.
1. CC(C)=CCCC(C)=CC=O (mixture of isomers) [citral]
2. O=C/C=C/c1ccccc1 [cinnamaldehyde]

OUT:
1: 4.5; 2: 34.7

###

# Test system: AKR1B10 (Homo sapiens, UniProt O60218)
# Construct: made in house
# Protocol: Inhibition of enzymatic activity with D,L-glyceraldehyde as substrate
# Assay type: biochemical
Value kind: pIC50
One number for each entry, as −log10 of the molar value.

IN: Consider the compound shown here: COc1ccc2c(C(=S)N(C)CC(=O)O)cccc2c1C(F)(F)F [Tolrestat] What is its recorded pIC50?
OUT: 8.22

###

# Test system: AKR1B15 (Homo sapiens)
# Construct: made in house; host or cells: E. coli BL21(DE3), with or without chaperone plasmids pBB540/pBB542
# Sequence (C9JRZ8 whole entry): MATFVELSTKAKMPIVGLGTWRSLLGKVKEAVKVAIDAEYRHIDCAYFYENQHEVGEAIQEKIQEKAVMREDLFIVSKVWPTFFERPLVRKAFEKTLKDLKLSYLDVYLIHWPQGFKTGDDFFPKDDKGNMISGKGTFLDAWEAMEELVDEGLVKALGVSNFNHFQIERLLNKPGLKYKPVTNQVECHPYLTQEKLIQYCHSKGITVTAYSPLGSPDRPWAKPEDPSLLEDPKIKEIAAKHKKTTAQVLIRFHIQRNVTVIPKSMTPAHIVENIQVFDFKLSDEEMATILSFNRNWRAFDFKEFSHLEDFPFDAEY
# Protocol: Spectrophotometric activity assay (NADPH decrease at 340 nm), substrate kinetics
# Type: biochemical
# Experimental setup: substrate, spectrophotometric, 100 mM sodium phosphate pH 7.0, 25°C, 0.2 mM NADPH, <1 values only approximate, read-out: Km
Value kind: log10(Km) (log10 of the value in µM)
Friendly reminder: values = log10 of Km, unit µM.

Recorded log10(Km), per entry:
CCCCCC(O)C=CC=O (centres unmarked) [4-hydroxy-2-nonenal]; 0.34
O=CC(O)CO (racemic); 2.94
C=CC=O; 1.56
CCC(=O)CC(=O)CC; 3.11
CCCCCC=CC(C)=O; 0.23
O=Cc1cccnc1; 0.46
O=C1C=CCCC1; 2.56
CCC(C)=O; 2.89

Could you report log10(Km) for every entry in the following list?
1. C=CC(C)=O
2. CCC/C=C/C=O [trans-2-hexenal]
3. CC(=O)CC(C)=O
4. CC(C)=CCCC(C)=CC=O (mixture of isomers)
5. CCCCCC=O

OUT:
1: 1.33; 2: 0.70; 3: 1.60; 4: 0.18; 5: 0.49
